// provenance: patent US20240174690A1

METHOD DESCRIPTION: Solubility measurement (DMSO solution method), McIlvaine buffer pH 4.5 or 6.8
Type: physicochemical
EXPERIMENTAL SETUP: aqueous buffer, kinetic from dmso stock; McIlvaine buffer pH 6.8; DMSO stock diluted to 250 μM; 24 h shaking at ambient temperature; read-out: solubility pH 6.8
MEASUREMENT TYPE: log10 of solubility at 24 h (log10 of the value in µg/mL)
Please note: log10 values; quantity solubility at 24 h; unit µg/mL.

Sample answers from the record:
Ask: Item under review: CO[C@H]1CCN(C)[C@@H]1[C@H](C)Oc1cc(N2CCNC3(CC3)C2)nc(-c2onc3c2CCC[C@@]32CCCc3sc(N)c(C#N)c32)n1 . Reported log10 of solubility at 24 h?
Result: 1.63

Ask: Item under review: C[C@H](Oc1cc(-n2cc(Cn3ccnc3)nn2)nc(-c2noc3c2CCC[C@@]32CCCc3sc(N)c(C#N)c32)n1)[C@@H]1CCCN1C . Reported log10 of solubility at 24 h?
Result: 2.03

Ask: Item under review: Cc1ccc(-c2cc(O[C@@H](C)[C@@H]3CCCN3C)nc(-c3onc4c3CCC[C@@]43CCCc4sc(N)c(C#N)c43)n2)cn1 . Reported log10 of solubility at 24 h?
Result: 0.90

Ask: Item under review: C[C@H](Oc1cc(-c2ccc(N)nc2)nc(-c2onc3c2CCC[C@@]32CCCc3sc(N)c(C#N)c32)n1)[C@@H]1CCCN1C . Reported log10 of solubility at 24 h?
Result: 1.64

Ask: Item under review: C[C@H](Oc1cc(-n2cc(C(=O)N(C)C)nn2)nc(-c2noc3c2CCC[C@@]32CCCc3sc(N)c(C#N)c32)n1)[C@@H]1CCCN1C . Reported log10 of solubility at 24 h?
Result: 2.00

Continuing:
Ask: Item under review: C[C@H](Oc1cc(-c2ccn3ncnc3c2)nc(-c2onc3c2CCC[C@@]32CCCc3sc(N)c(C#N)c32)n1)[C@@H]1CCCN1C . Reported log10 of solubility at 24 h?
Result: 0.60

Ask: Item under review: C[C@H](Oc1cc(-n2cncn2)nc(-c2onc3c2CCC[C@@]32CCCc3sc(N)c(C#N)c32)n1)[C@@H]1CCCN1C . Reported log10 of solubility at 24 h?
Result: 1.96

Ask: Item under review: C[C@H](Oc1cc(-n2ccnc2Cl)nc(-c2noc3c2CCC[C@@]32CCCc3sc(N)c(C#N)c32)n1)[C@@H]1CCCN1C . Reported log10 of solubility at 24 h?
Result: 1.30

Ask: Item under review: CNC(=O)c1cn(-c2cc(O[C@@H](C)[C@@H]3CCCN3C)nc(-c3noc4c3CCC[C@@]43CCCc4sc(N)c(C#N)c43)n2)nn1 . Reported log10 of solubility at 24 h?
Result: 1.99

Ask: Item under review: C[C@H](Oc1cc(N2CCCC2=O)nc(-c2noc3c2CCC[C@@]32CCCc3sc(N)c(C#N)c32)n1)[C@@H]1CCCN1C . Reported log10 of solubility at 24 h?
Result: 1.94

Ask: Item under review: C[C@@H]1CN(c2cc(O[C@@H](C)[C@@H]3C[C@@H](F)CN3C)nc(-c3noc4c3CCC[C@@]43CCCc4sc(N)c(C#N)c43)n2)CC2(CC2)N1 . Reported log10 of solubility at 24 h?
Result: 1.30

Ask: Item under review: C[C@H](Oc1cc(-n2cc3c(n2)CNC3)nc(-c2noc3c2CCC[C@@]32CCCc3sc(N)c(C#N)c32)n1)[C@@H]1C[C@@H](F)CN1C . Reported log10 of solubility at 24 h?
Result: 1.23

Ask: Item under review: C[C@H](Oc1cc(-n2ccnc2)nc(-c2onc3c2CCC[C@@]32CCCc3sc(N)c(C#N)c32)n1)[C@@H]1CCCN1C . Reported log10 of solubility at 24 h?
Result: 1.99

Ask: Item under review: CO[C@@H]1C[C@@H]([C@H](C)Oc2cc(-n3ccnc3)nc(-c3noc4c3CCC[C@@]43CCCc4sc(N)c(C#N)c43)n2)N(C)C1 . Reported log10 of solubility at 24 h?
Result: 0.30

Ask: Item under review: C[C@H](Oc1cc(N2CCC[C@H](O)C2)nc(-c2noc3c2CCC[C@@]32CCCc3sc(N)c(C#N)c32)n1)[C@@H]1CCCN1C . Reported log10 of solubility at 24 h?
Result: 2.00

Ask: Item under review: C[C@H](Oc1cc(-n2cnc(C(=O)N(C)C)c2)nc(-c2noc3c2CCC[C@@]32CCCc3sc(N)c(C#N)c32)n1)[C@@H]1CCCN1C . Reported log10 of solubility at 24 h?
Result: 2.02
